target_or_test_system: UniProt Q8TDV5
Sequence (Q8TDV5 whole entry): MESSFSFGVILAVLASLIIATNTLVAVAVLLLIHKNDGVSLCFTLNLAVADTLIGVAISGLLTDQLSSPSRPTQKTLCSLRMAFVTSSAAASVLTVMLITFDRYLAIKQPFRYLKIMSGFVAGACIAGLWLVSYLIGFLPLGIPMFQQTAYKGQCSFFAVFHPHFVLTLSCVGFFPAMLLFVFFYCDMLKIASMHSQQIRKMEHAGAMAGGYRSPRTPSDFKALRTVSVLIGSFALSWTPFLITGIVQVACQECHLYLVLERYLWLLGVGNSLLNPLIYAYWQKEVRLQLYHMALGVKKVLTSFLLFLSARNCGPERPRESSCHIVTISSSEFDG
assay_comment: Intrinsic activity at human recombinant GPR119 expressed in HEK293 cells co-expressing CRE beta-lactamase assessed as cAMP accumulation at 10 uM by HTRF assay relative to control
Format: functional, cell-based
endpoint_label: Intrinsic activity (%)
Form entry: value (%) — number only.

Lab note: need Intrinsic activity with UniProt Q8TDV5 for entry `CC(C)OC(=O)N1CCC(n2cc(CNc3ccc(S(C)(=O)=O)cc3F)cn2)CC1` , please look it up.
41

Item CCc1cnc(N2CCC([N+]3([O-])Cc4cn(-c5ccc(S(C)(=O)=O)cc5F)nc4C3)CC2)nc1 (stereo not drawn) with UniProt Q8TDV5 - Intrinsic activity?
107

Item: `CS(=O)(=O)c1ccc(NCc2cnn(C3CCN(C(=O)OC4CCC4)CC3)c2)c(F)c1` Test system: UniProt Q8TDV5 Read-out: Intrinsic activity Value: ?
42

Give recorded Intrinsic activity with UniProt Q8TDV5 for the following compound: `CCc1cnc(OC(=O)N2CCC(n3cc(CNc4ccc(S(C)(=O)=O)cc4F)cn3)CC2)nc1`
43

Query Intrinsic activity on UniProt Q8TDV5 for `CCc1cnc(N2CCC(N3Cc4cn(-c5ccc(S(C)(=O)=O)cc5F)nc4C3)CC2)nc1`
118

Record lookup: for UniProt Q8TDV5, what Intrinsic activity belongs to `CC(C)OC(=O)N1CCC(N2Cc3cn(-c4ccc(S(C)(=O)=O)cc4F)nc3C2)CC1` ?
105

API: value(readout= Intrinsic activity, system= UniProt Q8TDV5, query= `CC(C)COC(=O)N1CCC(n2cc(CNc3ccc(S(C)(=O)=O)cc3F)cn2)CC1` )
24

Quick check: Intrinsic activity on UniProt Q8TDV5, item `CC(C)OC(=O)N1CCC(n2cc3c(n2)CN(c2ccc(S(C)(=O)=O)cc2F)C3)CC1` ?
48
